Tested on: haem polymerization
Assay: Cell-free haem polymerization assay
Assay type: biochemical
Details: cell‐free, N = 2
endpoint.name: IC50

Prompt line: Give IC50; test system haem polymerization; molecule `CC[C@H]1OC(=O)[C@H](C)[C@@H](O)[C@H](C)[C@@H](O[C@@H]2O[C@H](C)C[C@H](N(C)C)[C@H]2OCCCNc2ccnc3ccccc23)[C@](C)(O)C[C@@H](C)CN[C@H](C)[C@@H](O)[C@]1(C)O`
Response line: 5 to 6.2 µM

Prompt line: Give IC50; test system haem polymerization; molecule `CC[C@H]1OC(=O)[C@H](C)[C@@H](O[C@H]2C[C@@](C)(OC)[C@@H](O)[C@H](C)O2)[C@H](C)[C@@H](O[C@@H]2O[C@H](C)C[C@H](N(C)C(C)=O)[C@H]2O)[C@](C)(O)C[C@@H](C)CN(CCCNC(=O)Nc2ccc3ccccc3c2)[C@H](C)[C@@H](O)[C@]1(C)O`
Response line: 46.3 µM

Prompt line: Give IC50; test system haem polymerization; molecule `CC[C@H]1OC(=O)[C@H](C)[C@@H](O[C@H]2C[C@@](C)(OC)[C@@H](O)[C@H](C)O2)[C@H](C)[C@@H](O[C@@H]2O[C@H](C)C[C@H](N(C)C)[C@H]2O)[C@](C)(O)C[C@@H](C)CN(CCCNc2ccnc3cc(Cl)ccc23)[C@H](C)[C@@H](O)[C@]1(C)O`
Response line: 2.5 to 4 µM

Prompt line: Give IC50; test system haem polymerization; molecule CC[C@H]1OC(=O)[C@H](C)[C@@H](O[C@H]2C[C@@](C)(OC)[C@@H](O)[C@H](C)O2)[C@H](C)[C@@H](O[C@@H]2O[C@H](C)C[C@H](N(C)C)[C@H]2O)[C@](C)(O)C[C@@H](C)CN(C)[C@H](C)[C@@H](O)[C@]1(C)O [Azithromycin, reference compound]
Response line: > 50 µM

Prompt line: Give IC50; test system haem polymerization; molecule CCN(CC)CCCC(C)Nc1ccnc2cc(Cl)ccc12 (centres unmarked) [Chloroquine, reference compound]
Response line: 3.8 to 10.6 µM

* * *

Assay: Pharmacokinetic studies in rats
Type: in vivo, Sprague–Dawley rats
Settings: male, Sprague-Dawley, whole blood, intravenous; Rat, i.v. 5 mg·kg^−1 / p.o. 25 mg·kg^−1, mean (SD)
endpoint.name: half-life (h)
Reply with just the number (in h).

Prompt line: Consider the compound `CC[C@H]1OC(=O)[C@H](C)[C@@H](O[C@H]2C[C@@](C)(OC)[C@@H](O)[C@H](C)O2)[C@H](C)[C@@H](O[C@@H]2O[C@H](C)C[C@H](N(C)C)[C@H]2O)[C@](C)(O)C[C@@H](C)CN(CCCNc2ccnc3cc(Cl)ccc23)[C@H](C)[C@@H](O)[C@]1(C)O` . State its measured half-life.
Response line: 23.3

* * *

Experiment: Pharmacokinetic studies in rats
Assay type: in vivo, Sprague–Dawley rats
Settings: male, Sprague-Dawley, whole blood, intravenous; Rat, i.v. 2 mg·kg^−1 / p.o. 10 mg·kg^−1, mean (SD)
endpoint.name: half-life (h)
Reply with just the number (in h).

Prompt line: Consider the compound `CC[C@H]1OC(=O)[C@H](C)[C@@H](O)[C@H](C)[C@@H](O[C@@H]2O[C@H](C)C[C@H](N(C)C)[C@H]2OCCCNc2ccnc3ccccc23)[C@](C)(O)C[C@@H](C)CN[C@H](C)[C@@H](O)[C@]1(C)O` . State its measured half-life.
Response line: 18.8
